The origin of these recorded values is ChEMBL document CHEMBL2434833.

- Assay Details: AUC in C57 mouse at 10 mg/kg, po
- Assay type: ADME, organism-based
- Parameters: dose 10 mg/kg, route oral
- Applied Conditions: plasma
Test Readout: AUC (ng·h/mL)
The response must be a number in ng·h/mL with no trailing unit.

CN[C@@H](C)C(=O)N[C@@H]1C(=O)N(Cc2c(OC)ccc3ccccc23)c2ccc(C#N)cc2N(C(C)=O)[C@H]1C.Cl    5980

Now turn to the next molecule.
Q. Requested field: AUC. Item: CN[C@@H](C)C(=O)N[C@@H]1C(=O)N(Cc2c(C)ccc3ccccc23)c2ccc(C#N)cc2N(C(C)=O)[C@H]1C.Cl
A. 7870
